- target desc: T1, VOP 29A-3 (synthetic)
- T1 chain: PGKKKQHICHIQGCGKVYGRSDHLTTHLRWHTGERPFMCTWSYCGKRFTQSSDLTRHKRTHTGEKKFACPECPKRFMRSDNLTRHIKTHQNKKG
- test description: EMSA
- study conditions: tags: MBP fusion (pMal-c2), SP1 backbone
quantity measured: Kd

Exam item: Quick one: Kd for VOP 29A-3 target (dsDNA) DNA 1: GAGGCTTGG DNA 2: CCAAGCCTC ?
Marked response: < 0.02 nM

The values you see were collected from patent US20030021776.
